These measurements were taken from patent US9856252B2.

biological target: Full-length PRMT5 enzyme (NCBI Reference sequence NP_006100.2) co-expressed with His6-MEP50 (Homo sapiens (Human))
pIC50: −log10 of the molar value.
value.type: pIC50

compound | result.number
CN(C)C(=O)Cc1ccnc2[nH]c(-c3ccc(OCc4ccccc4)cc3)nc12 | 5.99
c1ccc(COc2ccc(-c3nc4ccc(NCC5CCCCN5)nc4[nH]3)cc2)cc1 (stereo not drawn) | 6.26
O=C(O)Cc1ccnc2[nH]c(-c3ccc(OCc4ccccc4)cc3)nc12 | 6.05
CS(=O)(=O)N1CCC(c2cnc3[nH]c(-c4ccc(OCc5ccccc5)cc4)nc3c2)CC1 | 5.95

A = O=C(Nc1ccc(-c2nc3cccnc3[nH]2)cc1)c1ccccc1
B = CN(C)c1ccc2nc(-c3ccc(OCc4ccccc4)cc3)[nH]c2n1
Please let me know which one, A or B , has a lower measured pIC50 value. Use the label to indicate which entry you chose.
A
(A: 5.40, B: 6.35)

====

biological target: Full-length PRMT5 enzyme (NCBI Reference sequence NP_006100.2) co-expressed with His6-MEP50 (Homo sapiens (Human), UniProt O14744); assay: PRMT5 Biochemical Assay; conditions: histone H4 derived peptide substrate 200 nM, 1 μM S-Adenosyl methionine, 4 hours at 37° C., Transcreener EPIGEN fluorescence polarisation
Sequence (O14744 whole entry): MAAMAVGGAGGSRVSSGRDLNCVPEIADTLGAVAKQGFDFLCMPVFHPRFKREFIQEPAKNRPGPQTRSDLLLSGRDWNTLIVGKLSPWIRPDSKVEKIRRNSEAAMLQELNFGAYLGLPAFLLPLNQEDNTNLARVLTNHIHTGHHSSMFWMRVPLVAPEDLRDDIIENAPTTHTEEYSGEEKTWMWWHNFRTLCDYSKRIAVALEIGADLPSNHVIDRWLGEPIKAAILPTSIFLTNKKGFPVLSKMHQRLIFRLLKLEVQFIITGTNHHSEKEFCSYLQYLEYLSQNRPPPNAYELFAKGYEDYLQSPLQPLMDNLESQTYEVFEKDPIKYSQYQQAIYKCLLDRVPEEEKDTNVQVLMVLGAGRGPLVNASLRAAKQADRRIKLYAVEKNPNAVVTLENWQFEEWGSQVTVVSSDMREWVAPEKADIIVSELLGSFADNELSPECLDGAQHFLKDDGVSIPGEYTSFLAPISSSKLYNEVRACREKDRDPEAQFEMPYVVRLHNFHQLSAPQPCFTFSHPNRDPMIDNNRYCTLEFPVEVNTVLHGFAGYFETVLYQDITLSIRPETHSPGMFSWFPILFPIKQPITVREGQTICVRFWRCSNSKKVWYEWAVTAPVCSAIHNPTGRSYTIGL
Sequence (Q9BQA1 whole entry partner): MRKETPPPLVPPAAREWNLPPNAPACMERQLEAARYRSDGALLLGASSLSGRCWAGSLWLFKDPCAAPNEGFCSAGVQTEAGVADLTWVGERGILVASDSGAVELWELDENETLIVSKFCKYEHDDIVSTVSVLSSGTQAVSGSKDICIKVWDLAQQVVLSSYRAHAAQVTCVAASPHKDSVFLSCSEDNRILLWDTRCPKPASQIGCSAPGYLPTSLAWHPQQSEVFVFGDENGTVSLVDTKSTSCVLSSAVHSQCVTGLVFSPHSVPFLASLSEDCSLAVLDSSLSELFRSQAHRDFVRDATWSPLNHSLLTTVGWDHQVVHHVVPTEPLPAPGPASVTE
pIC50: −log10 of the molar value.
value.type: pIC50

Observe how each entry below is paired with its result.
molecule | pIC50
c1ccc(COc2ccc(-c3nc4ccc(C5CCNCC5)nc4[nH]3)cc2)cc1 | 6.65
c1ccc(COc2ccc(-c3nc4ccc(N5CCNCC5)nc4[nH]3)cc2)cc1 | 6.71

P = CCS(=O)(=O)N1CCC(c2ccc3nc(-c4ccc(OCc5ccccc5)cc4)[nH]c3n2)CC1
Q = NCC1CCCN(c2ccc3nc(-c4ccc(OCc5ccccc5)cc4)[nH]c3n2)C1 (stereo not shown)
Which of the two items, P and Q , has the greater recorded pIC50? Field: selected label. Fill in the label of the entry you choose.
P
(P: 6.83, Q: 6.50)
